ASSAY_METHOD_TEXT: AUClast in Beagle dog at 1 mg/kg, po measured at 0.25 to 24 hrs by LC-MS/MS analysis
Assay type: ADME, organism-based, Canis lupus familiaris
Set-up: time upper 24 hrs, dose 1 mg/kg, time lower 0.25 hrs, route po
DETAILS: in vivo
RECORDED_METRIC: AUC(0-t) (ng·h/mL)

query_smiles=COc1cc([C@@H](C)C(=O)N2CC[C@@]3(COc4cc(-c5ncccn5)c(C)nc4N3)C2)c(F)cn1 recorded_metric=AUC(0-t) numeric_result=4580

====

EXPERIMENTAL_SYSTEM: High affinity cAMP-specific and IBMX-insensitive 3',5'-cyclic phosphodiesterase 8B (Homo sapiens, UniProt O95263)
Sequence (O95263 whole entry): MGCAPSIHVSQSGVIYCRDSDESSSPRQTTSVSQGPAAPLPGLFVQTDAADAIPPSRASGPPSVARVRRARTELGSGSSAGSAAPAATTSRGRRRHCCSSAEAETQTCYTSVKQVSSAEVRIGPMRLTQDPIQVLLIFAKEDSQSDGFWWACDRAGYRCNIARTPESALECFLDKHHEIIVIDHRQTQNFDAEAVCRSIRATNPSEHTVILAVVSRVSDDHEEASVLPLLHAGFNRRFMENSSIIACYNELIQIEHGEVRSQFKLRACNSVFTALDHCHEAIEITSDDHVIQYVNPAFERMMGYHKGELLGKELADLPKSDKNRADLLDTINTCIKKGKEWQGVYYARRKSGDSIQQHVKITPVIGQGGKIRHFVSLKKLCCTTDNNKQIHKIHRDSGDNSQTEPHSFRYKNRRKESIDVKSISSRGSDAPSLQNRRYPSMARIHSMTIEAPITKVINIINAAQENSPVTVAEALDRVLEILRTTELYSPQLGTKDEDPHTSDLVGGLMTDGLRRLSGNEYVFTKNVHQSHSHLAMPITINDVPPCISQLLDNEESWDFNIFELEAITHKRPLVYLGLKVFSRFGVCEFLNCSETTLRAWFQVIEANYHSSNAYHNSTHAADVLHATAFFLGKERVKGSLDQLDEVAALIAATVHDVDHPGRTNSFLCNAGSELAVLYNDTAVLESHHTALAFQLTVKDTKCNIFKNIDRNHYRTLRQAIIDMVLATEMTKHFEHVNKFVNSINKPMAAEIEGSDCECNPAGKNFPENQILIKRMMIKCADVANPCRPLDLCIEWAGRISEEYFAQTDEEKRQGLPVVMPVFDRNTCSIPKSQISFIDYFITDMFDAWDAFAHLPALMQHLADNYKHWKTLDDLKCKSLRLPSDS
RECORDED_METRIC: IC50

query_smiles=COc1cc([C@@H](C)C(=O)N2CC[C@@]3(COc4cc(-c5ncccn5)c(C)nc4N3)C2)c(F)cn1 result="> 50 µM"

====

ASSAY_METHOD_TEXT: AUC (0 to infinity) in Wistar Han rat at 1 mg/kg, iv measured at 0.033 to 24 hrs by LC-MS/MS analysis
Type: ADME, organism-based
Parameters: time upper 24 hrs, dose 1 mg/kg, time lower 0.033 hrs, route iv
DETAILS: in vivo
RECORDED_METRIC: AUC(0-inf)

query_smiles=COc1cc([C@@H](C)C(=O)N2CC[C@@]3(COc4cc(-c5ncccn5)c(C)nc4N3)C2)c(F)cn1 recorded_metric=AUC(0-inf) result="785 ng·h/mL"

====

ASSAY_METHOD_TEXT: Volume of distribution at steady state in Beagle dog at 1 mg/kg, iv measured at 0.033 to 24 hrs by LC-MS/MS analysis
Type: ADME, organism-based, Canis lupus familiaris
DETAILS: in vivo, time 0.033-24 hrs, read-out: Vdss
RECORDED_METRIC: Vd (L/kg)

query_smiles=COc1cc([C@@H](C)C(=O)N2CC[C@@]3(COc4cc(-c5ncccn5)c(C)nc4N3)C2)c(F)cn1 recorded_metric=Vd unit_name=L/kg numeric_result=1.3

====

EXPERIMENTAL_SYSTEM: UniProt:P70596
Sequence (P70596 whole entry): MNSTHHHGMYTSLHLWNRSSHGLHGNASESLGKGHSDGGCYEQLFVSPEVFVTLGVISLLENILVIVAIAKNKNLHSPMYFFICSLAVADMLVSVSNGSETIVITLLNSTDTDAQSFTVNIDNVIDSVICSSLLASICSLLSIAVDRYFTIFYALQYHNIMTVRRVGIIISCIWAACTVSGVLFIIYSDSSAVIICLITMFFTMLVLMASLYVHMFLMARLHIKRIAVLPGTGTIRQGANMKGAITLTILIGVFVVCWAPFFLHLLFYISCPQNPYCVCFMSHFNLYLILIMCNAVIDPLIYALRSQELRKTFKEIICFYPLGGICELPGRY
RECORDED_METRIC: Ki (nM)

query_smiles=COc1cc([C@@H](C)C(=O)N2CC[C@@]3(COc4cc(-c5ncccn5)c(C)nc4N3)C2)c(F)cn1 numeric_result=0.52

====

ASSAY_METHOD_TEXT: Half life in Beagle dog at 1 mg/kg, po measured at 0.25 to 24 hrs by LC-MS/MS analysis
Type: ADME, organism-based, Canis lupus familiaris
DETAILS: in vivo, time 0.25-24 hrs
RECORDED_METRIC: half-life (h)

query_smiles=COc1cc([C@@H](C)C(=O)N2CC[C@@]3(COc4cc(-c5ncccn5)c(C)nc4N3)C2)c(F)cn1 recorded_metric=half-life numeric_result=3.6

====

Property: logD; scope: individual compounds
ASSAY_METHOD_TEXT: Lipophilicity, logD of compound at pH 7.4 by shake flask method
Assay type: physicochemical
DETAILS: buffer
RECORDED_METRIC: logD

query_smiles=Cc1nc2c(cc1-c1cnn(C)c1)CC[C@@]1(CCN(C(=O)Cc3ccc(F)cc3)C1)N2 result=2.6
query_smiles=COc1cc([C@@H](C)C(=O)N2CC[C@H](Nc3ccc(-c4ncccn4)c(C)n3)C2)c(F)cn1 result=2.6
query_smiles=COc1cc([C@@H](C)C(=O)N2CC[C@@]3(COc4cc(-c5ncccn5)c(C)nc4N3)C2)c(F)cn1 result=2.6
query_smiles=COc1cc([C@@H](C)C(=O)N2CC[C@@]3(CCc4cc(-c5nc(C(F)F)n(C)n5)c(C)nc4N3)C2)c(F)cn1 result=3.2
query_smiles=COc1cc([C@@H](C)C(=O)N2CC[C@H](Nc3ccc(-c4nc(C(F)F)n(C)n4)c(C)n3)C2)ccn1 result=2.7

====

ASSAY_METHOD_TEXT: Clearance in Wistar Han rat plasma at 1 mg/kg, iv measured at 0.033 to 24 hrs by LC-MS/MS analysis
Assay type: ADME, organism-based
DETAILS: time 0.033-24 hrs
RECORDED_METRIC: clearance (mL/min/kg)

query_smiles=COc1cc([C@@H](C)C(=O)N2CC[C@@]3(COc4cc(-c5ncccn5)c(C)nc4N3)C2)c(F)cn1 numeric_result=21

====

ASSAY_METHOD_TEXT: Octanol-water distribution coefficient, logD of the compound at pH 7.4 by RP-HPLC analysis
Type: physicochemical
RECORDED_METRIC: logD

compound=COc1cc([C@@H](C)C(=O)N2CC[C@H](Nc3ccc(-c4nc(C(F)F)n(C)n4)c(C)n3)C2)c(F)cn1 recorded_metric=logD numeric_result=3.4
compound=COc1cc([C@@H](C)C(=O)N2CC[C@H](Nc3ccc(-c4nc(C(F)(F)F)n(C)n4)c(C)n3)C2)c(F)cn1 recorded_metric=logD numeric_result=4.2
compound="Cc1nc2c(cc1-c1cnn(C)c1)CC1(CCN(C(=O)Cc3ccc(F)cc3)C1)N2 (racemic)" recorded_metric=logD numeric_result=1.9
compound=COc1cc(CC(=O)N2CC[C@H](Nc3ccc(-c4nc(C(F)(F)F)n(C)n4)c(C)n3)C2)cc(OC)c1 recorded_metric=logD numeric_result=3.6
compound=COc1cc([C@@H](C)C(=O)N2CC[C@@]3(COc4cc(-c5ncccn5)c(C)nc4N3)C2)c(F)cn1 recorded_metric=logD numeric_result=2.6
compound=Cc1nc2c(cc1-c1cnn(C)c1)OC[C@@]1(CCN(C(=O)Cc3ccc(F)cc3)C1)N2 recorded_metric=logD numeric_result=2.4

====

ASSAY_METHOD_TEXT: Oral bioavailability in Wistar Han rat at 5 mg/kg measured at 0.083 to 24 hrs by LC-MS/MS analysis
Assay type: ADME, organism-based
DETAILS: in vivo, time 0.083-24 hrs
RECORDED_METRIC: bioavailability

query_smiles=COc1cc([C@@H](C)C(=O)N2CC[C@@]3(COc4cc(-c5ncccn5)c(C)nc4N3)C2)c(F)cn1 result=28%

====

EXPERIMENTAL_SYSTEM: Melanocortin receptor 4 (Homo sapiens)
Sequence (P32245 whole entry): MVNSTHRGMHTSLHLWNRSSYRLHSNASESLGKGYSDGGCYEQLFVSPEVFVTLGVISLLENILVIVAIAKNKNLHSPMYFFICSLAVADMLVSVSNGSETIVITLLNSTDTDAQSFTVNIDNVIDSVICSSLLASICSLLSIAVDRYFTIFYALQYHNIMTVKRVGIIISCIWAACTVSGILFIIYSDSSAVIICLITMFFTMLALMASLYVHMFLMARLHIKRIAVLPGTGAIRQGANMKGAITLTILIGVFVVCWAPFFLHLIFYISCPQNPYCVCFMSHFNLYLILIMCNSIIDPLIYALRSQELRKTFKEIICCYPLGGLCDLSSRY
ASSAY_METHOD_TEXT: Antagonist activity at human MC4R in CHO cells measured for 24 hrs
Assay type: cell-based
pIC50: −log10 of the molar value.
In this section we review reported pIC50 values for a set of compounds.
RECORDED_METRIC: pIC50

query_smiles=COc1ccc2nc(N(C(=O)Cc3cc(F)cc(F)c3)[C@H]3CCNC3)ccc2c1 recorded_metric=pIC50 numeric_result=8.42
query_smiles=Cc1nc(N[C@H]2CCN(C(=O)Cc3ccc(F)cc3)C2)ccc1-c1nc(C(F)(F)F)n(C)n1 recorded_metric=pIC50 numeric_result=6.68
query_smiles=Cc1nc(N[C@H]2CCN(C(=O)Cc3ccc(F)cc3)C2)ccc1-c1ncn(C)n1 recorded_metric=pIC50 numeric_result=6.62

====

ASSAY_METHOD_TEXT: Metabolic stability in human hepatocyte assessed as intrinsic clearance measured per 10^6 cells HPLC/UV/MS analysis
Type: ADME, cell-based
DETAILS: hepatocytes, read-out: CLH
RECORDED_METRIC: hepatocyte CLint (µL/min/1e6 cells)

query_smiles=COc1ccc2nc(N[C@H]3CCN(C(=O)Cc4cc(F)cc(F)c4)C3)ccc2c1 numeric_result=28
query_smiles=Cc1nc(N[C@H]2CCN(C(=O)Cc3ccc(F)cc3)C2)ccc1-c1nc(C(F)(F)F)n(C)n1 numeric_result=20
query_smiles=[2H]C([2H])([2H])n1nc(-c2ccc(N[C@H]3CCN(C(=O)[C@H](C)c4cc(OC)ncc4F)C3)nc2C)nc1C(F)F numeric_result=18
query_smiles=Cc1nc(N[C@H]2CCN(C(=O)Cc3ccc(F)cc3)C2)ccc1-c1ncn(C)n1 numeric_result=4.5
query_smiles=COc1cc([C@@H](C)C(=O)N2CC[C@H](Nc3ccc(-c4n[nH]c(C(F)F)n4)c(C)n3)C2)c(F)cn1 numeric_result=7.5
query_smiles=COc1cc([C@@H](C)C(=O)N2CC[C@H](Nc3ccc(-c4nc(C(F)F)n(C)n4)c(C)n3)C2)c(F)cn1 numeric_result=15

====

ASSAY_METHOD_TEXT: Half life in Beagle dog at 1 mg/kg, iv measured at 0.033 to 24 hrs by LC-MS/MS analysis
Format: ADME, organism-based, Canis lupus familiaris
DETAILS: in vivo, time 0.033-24 hrs
RECORDED_METRIC: half-life (h)

query_smiles=COc1cc([C@@H](C)C(=O)N2CC[C@@]3(COc4cc(-c5ncccn5)c(C)nc4N3)C2)c(F)cn1 recorded_metric=half-life numeric_result=2.3
